Test system: MS2 coat protein
Assay: apparent Kd, MS2 coat protein; higher = weaker binding; RNA-MaP array; FMN 200 µM where present
Conditions: designed as: ON switch for flavin mononucleotide; no ligand
test.readout: apparent Kd (nM)

• GGUCCAUAAUGAGGAUAUGGCACCUUAUUGGUGCCAGAAGGCAUGUCUAUAGACAUGAGGAUCACCCAUGUAAUAAAUUGGACC = 435
• ACAUGAGGAUCACCCAUGUAUACAUAGGAUAUUGGUGAUCAGGGAUGUUUUACAGGAUAUGUCUGCGAGAAGGAUGCAAGUACU = 178
• CGGUAAACCACAGGAUAUGGCUAGUAUAACUAGCCAGAAGGGUGGUCGAAACCAUGUAAAUACAUGAGGAUCACCCAUGUAUCC = 496
• ACAUGAGGAUCACCCAUGUUGAAUUAGGAUAUUUGACUGCACAUGAGGUUCACCCAUGUUCAACCGGAGAAGGGAUUAAUAAUU = 82.5
• GCGAUUUUGUAAGGAUAUACUCUGUGAUGAAGAGUAGAAGGUACUUACAUGAGGAUCACCCAUGUUUAACGAGAUACUAAUCGU = 42.1
• GCCAUCACAUGAGGAUAUGCUCCCGUUUCGGGAGCAGAAGGCAUGUCAUCAGACAUGAGGAUCACCCAUGUAGUUAAGAUGGCA = 361
• GCGAUUUUGUAAGGAUAUACACGAGUUUUAAGUGUAGAAGGUACUUACAUGAGGAUCACCCAUGUAUUAAUGUUUAAUAGUCGC = 8.5
